Assay: Biodistribution in AR4-2J tumor-bearing mice
Type: in vivo
Conditions: female, mouse, blood, iv, total radioactivity; AR4-2J tumor SCID mice, 4 h pi + co-injection of 50 nmol Tate; mean ± SD; read-out: Blood uptake, blocked
Description: In the flanks of each of female SCID mice, inocula (150 μL) containing a suspension of 0.8 × 10^7 AR4-2J cells in PBS buffer were subcutaneously injected. […] Mice were sacrificed at 4 h pi, and biodistribution was studied as described above. The in vivo data presented as mean %ID/g ± SD (n ≥ 4) were statistically analyzed with Student’s t test (Prism^TM 2.01, GraphPad Software, San Diego, CA, USA). Analyses were 2-tailed, and a P value < 0.05 was considered statistically significant.
RECORDED_METRIC: tissue uptake at 4 h (%ID/g)

1. C[C@H](NC(=O)CN1CCN(CC(=O)O)CCN(CC(=O)O)CCN(CC(=O)O)CC1)C(=O)NCC(=O)N[C@H]1CSSC[C@@H](C(=O)O)NC(=O)[C@H](CO)NC(=O)[C@H]([C@@H](C)O)NC(=O)[C@H](Cc2ccccc2)NC(=O)[C@H]([C@@H](C)O)NC(=O)[C@H](CCCCN)NC(=O)[C@@H](Cc2c[nH]c3ccccc23)NC(=O)[C@H](Cc2ccccc2)NC(=O)[C@H](Cc2ccccc2)NC(=O)[C@H](CC(N)=O)NC(=O)[C@H](CCCCN)NC1=O [[^111In]AT2S, metal not drawn] ... 0.26

###

Assay: Biodistribution in AR4-2J tumor-bearing mice
Format: in vivo
Settings: female, mouse, pancreas, iv, 10 pmol, total radioactivity; AR4-2J tumor SCID mice, 4 h pi; mean ± SD; read-out: Pancreas uptake
Description: In the flanks of each of female SCID mice, inocula (150 μL) containing a suspension of 0.8 × 10^7 AR4-2J cells in PBS buffer were subcutaneously injected. […] Mice were sacrificed at 4 h pi, and biodistribution was studied as described above. The in vivo data presented as mean %ID/g ± SD (n ≥ 4) were statistically analyzed with Student’s t test (Prism^TM 2.01, GraphPad Software, San Diego, CA, USA). Analyses were 2-tailed, and a P value < 0.05 was considered statistically significant.
RECORDED_METRIC: tissue uptake at 4 h (%ID/g)

1) C[C@H](NC(=O)CN1CCN(CC(=O)O)CCN(CC(=O)O)CCN(CC(=O)O)CC1)C(=O)NCC(=O)N[C@H]1CSSC[C@@H](C(=O)O)NC(=O)[C@H](CO)NC(=O)[C@H]([C@@H](C)O)NC(=O)[C@H](Cc2ccccc2)NC(=O)[C@H]([C@@H](C)O)NC(=O)[C@H](CCCCN)NC(=O)[C@@H](Cc2c[nH]c3ccccc23)NC(=O)[C@H](Cc2ccccc2)NC(=O)[C@H](Cc2ccccc2)NC(=O)[C@H](CC(N)=O)NC(=O)[C@H](CCCCN)NC1=O [[^111In]AT2S, metal not drawn] ... 5.13

###

assay: Biodistribution in AR4-2J tumor-bearing mice; type: in vivo; details: female, mouse, blood, iv, 10 pmol, total radioactivity; AR4-2J tumor SCID mice, 4 h pi; mean ± SD; read-out: Blood uptake
RECORDED_METRIC: tissue uptake at 4 h (%ID/g)

1. C[C@H](NC(=O)CN1CCN(CC(=O)O)CCN(CC(=O)O)CCN(CC(=O)O)CC1)C(=O)NCC(=O)N[C@H]1CSSC[C@@H](C(=O)O)NC(=O)[C@H](CO)NC(=O)[C@H]([C@@H](C)O)NC(=O)[C@H](Cc2ccccc2)NC(=O)[C@H]([C@@H](C)O)NC(=O)[C@H](CCCCN)NC(=O)[C@@H](Cc2c[nH]c3ccccc23)NC(=O)[C@H](Cc2ccccc2)NC(=O)[C@H](Cc2ccccc2)NC(=O)[C@H](CC(N)=O)NC(=O)[C@H](CCCCN)NC1=O [[^111In]AT2S, metal not drawn] ... 0.19
